Give measured hERG current change (%, negative = inhibition) at 10uM for each item. Keep answers brief.
# system: human ether-à-go-go-related gene (hERG) potassium channel (human);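 also: peak tail current of the secondary pulse compared with the same well before compound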
# Sequence (Q12809 whole entry, looked up): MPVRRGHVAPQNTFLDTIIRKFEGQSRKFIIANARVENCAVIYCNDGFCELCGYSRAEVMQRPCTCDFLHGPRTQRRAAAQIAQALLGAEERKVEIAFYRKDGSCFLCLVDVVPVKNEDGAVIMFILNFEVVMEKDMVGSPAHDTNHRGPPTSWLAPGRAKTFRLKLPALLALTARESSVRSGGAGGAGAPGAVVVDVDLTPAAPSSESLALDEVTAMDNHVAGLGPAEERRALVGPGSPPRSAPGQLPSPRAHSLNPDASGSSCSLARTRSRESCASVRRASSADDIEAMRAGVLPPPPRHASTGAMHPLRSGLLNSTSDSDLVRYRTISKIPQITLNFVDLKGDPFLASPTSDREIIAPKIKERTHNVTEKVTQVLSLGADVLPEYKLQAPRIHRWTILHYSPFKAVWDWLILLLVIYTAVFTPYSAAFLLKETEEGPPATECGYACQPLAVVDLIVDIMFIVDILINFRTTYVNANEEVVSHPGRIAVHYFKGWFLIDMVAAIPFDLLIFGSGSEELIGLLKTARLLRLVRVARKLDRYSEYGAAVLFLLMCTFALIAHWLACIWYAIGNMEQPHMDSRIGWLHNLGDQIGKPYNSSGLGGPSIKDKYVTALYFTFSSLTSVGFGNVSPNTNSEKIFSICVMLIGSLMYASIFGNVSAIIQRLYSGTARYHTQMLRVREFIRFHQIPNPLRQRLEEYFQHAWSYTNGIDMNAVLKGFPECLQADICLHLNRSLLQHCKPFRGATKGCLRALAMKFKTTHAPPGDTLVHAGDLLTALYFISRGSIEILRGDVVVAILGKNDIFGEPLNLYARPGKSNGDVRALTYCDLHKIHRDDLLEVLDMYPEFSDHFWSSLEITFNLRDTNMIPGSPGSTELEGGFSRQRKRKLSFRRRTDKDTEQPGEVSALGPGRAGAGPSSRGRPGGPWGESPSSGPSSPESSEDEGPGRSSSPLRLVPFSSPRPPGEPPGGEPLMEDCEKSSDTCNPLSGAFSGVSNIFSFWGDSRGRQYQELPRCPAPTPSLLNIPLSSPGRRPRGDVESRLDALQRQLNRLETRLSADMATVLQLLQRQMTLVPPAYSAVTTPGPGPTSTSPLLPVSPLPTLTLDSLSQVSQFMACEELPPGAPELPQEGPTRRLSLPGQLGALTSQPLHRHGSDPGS
# test.description: primary screen, population patch clamp on CHO cells stably expressing hERG; higher = less effect of the substance
# Method: Briefly, Chinese hamster ovary (CHO) cells stably expressing the hERG channel were dislodged from tissue culture flasks and dispensed into PPC plates. […] During the recording, background leak currents were estimated by a 100 ms step to -80 mV from an initial holding potential of -70 mV and subtracted from the subsequent current measurement. The campaign was conducted in two phases using slight differences in recording protocol. […]
Out of some 310,000 compounds screened, about 14,000 (4.5%) showed an effect of 50% or more. Effects have a minus sign here. This is one part of a sample in which strong results are shown more often than they occur.
State just the number; it will be interpreted in %.

Ask: Which value of hERG current change (%, negative = inhibition) at 10uM has been reported for Cl.OC(COc1ccc2c(c1)OCO2)CN1CCN(c2ccccc2)CC1 (stereo not shown) in the records?
Result: -2.44

Ask: // lookup hERG current change (%, negative = inhibition) at 10uM for CCCCOc1ccc(S(=O)(=O)n2c(C)nc3ccccc32)cc1
Result: 0.0246

Ask: Query: hERG current change (%, negative = inhibition) at 10uM; subject: CCC(NC(=S)NC1CCCCC1)c1ccc(C(C)C)cc1 (stereo not shown)
Result: 13.7

Ask: I would be grateful if you could share the reported hERG current change (%, negative = inhibition) at 10uM for Cc1cccnc1NC1=NCC(C)S1 (stereo not shown) .
Result: 3.1

Ask: For CC(=O)c1ccc(OCC(O)CN2CCN(c3ccc(F)cc3)CC2)cc1.Cl (stereo not shown) , what is its reported hERG current change (%, negative = inhibition) at 10uM?
Result: -67.4

Ask: Could you tell me which hERG current change (%, negative = inhibition) at 10uM is on file for COc1ccc(OCC(O)CN2CCN(c3ccc(OC)cc3)CC2)cc1.Cl (stereo not shown) ?
Result: -37.7

Ask: Fill in: hERG current change (%, negative = inhibition) at 10uM of CCOc1ccc(N(CC)C(=O)Cc2c(C(=O)O)n(C)c3ccccc23)cc1 is ___
Result: 16.8

Ask: Given OC(COc1ccc(F)cc1)CN1CCN(CC(O)COc2ccc(F)cc2)CC1 (stereo not shown) , state its recorded hERG current change (%, negative = inhibition) at 10uM.
Result: -71.5

Ask: I'd like to know its hERG current change (%, negative = inhibition) at 10uM. The compound in question is CCC(=O)c1ccc(OCC(O)CN2CCN(c3ccc(F)cc3)CC2)cc1 (stereo not shown)
Result: -26.8

Ask: Quick one: hERG current change (%, negative = inhibition) at 10uM for COc1ccc(CCC(=O)Nc2ccc3c(c2)OCO3)cc1 ?
Result: 2.6

----------
# system: human ether-à-go-go-related gene (hERG) potassium channel (human);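 also: peak tail current of the secondary pulse compared with the same well before compound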
# test.description: primary screen, population patch clamp on CHO cells stably expressing hERG; higher = less effect of the substance
Hit rate of the full screen: of about 310,000 compounds, about 14,000 (4.5%) showed an effect of 50% or more. Effects have a minus sign here. Many of the other results were omitted from the sample, so strong results are more common in it than they were.
Assign hERG current change (%, negative = inhibition) at 10uM to each entry below.
I only need the number, in %, no unit after it.

Ask: Param item = CCOc1ccc(CN2CCN(CCCc3ccccc3)CC2CCO)cc1 (centres unmarked) ; retrieve measured hERG current change (%, negative = inhibition) at 10uM.
Result: -76

Ask: Entry CCOc1ccc(CN2CCN(CCCc3ccccc3)C(CCO)C2)cc1 (centres unmarked) has what hERG current change (%, negative = inhibition) at 10uM?
Result: -75.5

Ask: Can you look up the measured hERG current change (%, negative = inhibition) at 10uM of CC(=O)c1cccc(NC(=O)CSc2ccc(-c3ccccn3)nn2)c1 for me?
Result: -13.6

Ask: Consider the compound CCOc1ccccc1CN1CCN(CC2CC2)CC1CCO (centres unmarked) and give its measured hERG current change (%, negative = inhibition) at 10uM.
Result: -2.67

Ask: Find the recorded hERG current change (%, negative = inhibition) at 10uM belonging to COC(=O)C(C)Oc1ccc2c(c1)O/C(=C\c1cccc(Br)c1)C2=O (centres unmarked) and report it.
Result: -46.9
